System: Streptococcus parasanguinis;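 note: lowest concentration where monotonic median growth AUC falls below 0.75 of drug-free control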
Assay: IC25 growth inhibition; higher = less potent
Exercise: state measured IC25 growth inhibition for each of the compounds provided.

# Input Smiles, IC25 growth inhibition
data = [
    ("Cc1ncc([N+](=O)[O-])n1CCO", "≤ 160 µM"),
    ("C[C@H]1c2cccc(O)c2C(=O)C2=C(O)[C@]3(O)C(=O)C(C(N)=O)=C(O)[C@@H](N(C)C)[C@@H]3[C@@H](O)[C@@H]21", "< 1.25 µM"),
    ("O=C(O)Cc1cc(I)c(Oc2ccc(O)c(I)c2)c(I)c1", "≤ 20 µM"),
]

Next compound, please.
## Task May I ask what IC25 growth inhibition has been recorded for `CO[C@@H]1[C@@H](OC(N)=O)[C@@H](O)[C@H](Oc2ccc3c(O)c(NC(=O)c4ccc(O)c(CC=C(C)C)c4)c(=O)oc3c2C)OC1(C)C` ?
## Result < 1.25 µM

Values compiled from the supplement of paper PMC12350171.
